# Run Description: Solubility of photochromic compound in polymerizable compounds
# Type: physicochemical
# Design: key: 1: No haze is seen when checked under transmission of light, and the sample is completely dissolved.; 2: A very thin haze is seen to the extent that it can be seen under transmission of light.; 3: A thin haze that can be seen under transmission of light is seen.; 4: A haze can be seen even without transmission of light
# Test Conditions: 35 µmol/g in radical polymerizable compound composition of Example 21, 65 to 70°C; head reads 60 min in Tables 8 to 14
This section presents compounds with their documented Dissolution for 1 hour values.

Study these solved cases before continuing.
Would you mind telling me what Dissolution for 1 hour value was observed for CCC(C)C1(CC)c2cc(OC)ccc2-c2c1c1c(c3cc(OC)ccc23)OC(c2ccc(OC)cc2)(c2ccc(N3CCOCC3)cc2)C=C1 (stereo not shown) ? 1

Here is the next compound: COc1ccc(C2(c3ccc(N4CCOCC4)cc3)C=Cc3c4c(c5cc(-c6ccc(N7CCOCC7)cc6)c(OC)cc5c3O2)-c2ccc(C)cc2C4(C)C)cc1 (stereo not shown) [Formula (G), reference compound] 2

Here is the next compound: CCC1(CC)c2ccccc2-c2c1c1c(c3cc(OC)c(N(C)c4ccccc4)cc23)OC(c2ccc(OC)cc2)(c2ccc(OC)cc2)C=C1 [Formula (F), reference compound] 2

---
Would you mind telling me what Dissolution for 1 hour value was observed for CCCCC1(C)c2cc(N(C)c3ccccc3)ccc2-c2c1c1c(c3cc(OC)c(OC)cc23)OC(c2ccc(OC)cc2)(c2ccc(OCCC)cc2)C=C1 (stereo not shown) ? 1

Here is the next compound: CCCC1(CC)c2ccccc2-c2c1c1c(c3cc(OC)c(N4CCOCC4)cc23)OC(c2ccc(OC)cc2)(c2ccc(OC)cc2)C=C1 (stereo not shown) 1

Here is the next compound: COc1ccc(C2(c3ccc(OC)cc3)C=Cc3c4c(c5cc(N6CCOCC6)c(OC)cc5c3O2)-c2ccccc2C42CCCCCCC2)cc1 [Formula (D), reference compound] 1

Here is the next compound: CCCC1(CC)c2ccccc2-c2c1c1c(c3cc(OC)c(-c4c(OC)cc(OC)cc4OC)cc23)OC(c2ccc(OC)cc2)(c2ccc(N(c3ccccc3)c3ccccc3)cc2)C=C1 (stereo not shown) 1

Here is the next compound: CCC1(OC)c2ccccc2-c2c1c1c(c3cc(OC)c(N4CCOCC4)cc23)OC(c2ccc(OC)cc2)(c2ccc(OC)cc2)C=C1 (stereo not shown) [Formula (B), reference compound] 1

Here is the next compound: CCCCC1(CC)c2ccccc2-c2c1c1c(c3cc(OC)c(N(C)c4ccccc4)cc23)OC(c2ccc(OC)cc2)(c2ccc(OC)cc2)C=C1 (stereo not shown) 1

Here is the next compound: CCCCCCC1(CC)c2ccccc2-c2c1c1c(c3cc(OC)c(N4CCOCC4)cc23)OC(c2ccc(OC)cc2)(c2ccc(OC)cc2)C=C1 (stereo not shown) 1

Here is the next compound: COc1ccc(C2(c3ccc(N(c4ccccc4)c4ccccc4)cc3)C=Cc3c4c(c5cc(-c6c(OC)cc(OC)cc6OC)c(OC)cc5c3O2)-c2ccccc2C4(C)C)cc1 (stereo not shown) [Formula (L), reference compound] 1
